Biological target: monoclonal antibody mAB 198
Assay: peptide microarray, fluorescence, cyclic peptide
Where no end group is shown, it is not given here.
experimental_endpoint: relative signal [%] (%)
Just the number in %, nothing appended.

Below, 2 binders whose answers are already recorded.
RLNPADY (also: cyclic peptide, ring type and places not given here) [RLNPADY, cyclic mimotope]    42.3
RGNPADYGG (also: cyclic peptide, ring type and places not given here)    22.2

Attention now turns to another entry.
[in] Consider the binder DVRLRFNPADY (also: cyclic peptide, mode of cyclisation not given here) and give its measured relative signal [%].
[out] 27.7

These measurements were taken from patent US20230381328A1.
